Test: in vivo
Conditions: male, Wistar, rat, po, 100 mg/kg, t1/2 (elimination half-life)
measured.metric: half-life

Qu. Look up and report measured half-life for this entry: CC1=CC(=O)c2c(O)cccc2C1=O [plumbagin, 5-hydroxy-2-methyl-1,4-naphthoquinone]
Ans. ~9.6 h

====

Assay: in vivo
Settings: male, Wistar, rat, po, 100 mg/kg
measured.metric: AUC(0-t) (ng·h/mL)
Quick reminder: number only, in ng·h/mL, skip the unit.

Qu. Consider the compound CC1=CC(=O)c2c(O)cccc2C1=O [plumbagin, 5-hydroxy-2-methyl-1,4-naphthoquinone] and give its recorded AUC(0-t).
Ans. 6510

====

Test: subacute toxicity test, daily oral dose for 28 days
Assay type: in vivo, rat
Settings: both sexes, Wistar, rat, in vivo; rats, daily oral doses for 28 days; read-out: 50 % lethal dose (LD50), subacute toxicity
measured.metric: LD50 at 28 days

Qu. Specify measured LD50 at 28 days for CC1=CC(=O)c2c(O)cccc2C1=O [plumbagin, 5-hydroxy-2-methyl-1,4-naphthoquinone] .
Ans. 50 to 100 mg/kg

====

Experiment: acute toxicity test, single oral dose
Assay type: in vivo, rat
Conditions: both sexes, Wistar, rat, in vivo; rats, single oral dose; read-out: 50 % lethal dose (LD50), acute toxicity
Protocol: Plumbagin was dissolved with 20 % Tween-80 to obtain the desired concentrations. Wistar rats were fasting 2 h before administration of a single oral dose of the plumbagin. Animals were divided into eight groups of six (3 males and 3 females for each group). For the acute toxicity test, rats in each group were fed with plumbagin at a single oral dose of 500, 250, or 150 mg/kg body weight (1 mL); control group received a single oral dose of 20 % Tween-80 (1 mL). […]
measured.metric: LD50 at 14 days

Qu. Look up LD50 at 14 days of CC1=CC(=O)c2c(O)cccc2C1=O [plumbagin, 5-hydroxy-2-methyl-1,4-naphthoquinone] and report it.
Ans. 250 mg/kg

====

Test: subacute toxicity test, daily oral dose for 28 days
Type: in vivo, rat
Conditions: both sexes, Wistar, rat, in vivo; rats, daily oral doses for 28 days; read-out: maximum tolerated dose, subacute toxicity
measured.metric: MTD at 28 days (mg/kg)
Could you give me the number in mg/kg? Just the number is fine.

Qu. Fill in MTD at 28 days for record CC1=CC(=O)c2c(O)cccc2C1=O [plumbagin, 5-hydroxy-2-methyl-1,4-naphthoquinone]
Ans. 25
